# Test system: U-2932
# EXPERIMENT_NOTES: growth inhibition by drug alone (1 - RLU/untreated control) (fraction); higher = stronger inhibition
# MEASUREMENT_CONTEXT: 10 nM; time (day): 4; 177Lu-lilotomab satetraxetan 0 ug/ml
Would you mind sorting the entries by growth inhibition by drug alone according to these classes? I (below 0.003), II (0.003 to below 0.06), III (0.06 or more)

[
  {
    "COMPOUND": "CNC(=O)c1ccc(N2C(=S)N(c3ccc(C#N)c(C(F)(F)F)c3)C(=O)C2(C)C)cc1F [MDV3100 (Enzalutamide)]",
    "GROUP_LABEL": "II"
  },
  {
    "COMPOUND": "Cn1cc(-c2ccc3nnc(Sc4ccc5ncccc5c4)n3n2)cn1",
    "GROUP_LABEL": "II"
  },
  {
    "COMPOUND": "CCOC(=O)[C@@H](C)Oc1cccc2c(=O)n(CC(=O)Nc3ccc4c(c3)OCCO4)ccc12",
    "GROUP_LABEL": "I"
  },
  {
    "COMPOUND": "O=C(O)c1ccc2cc(-c3ccc(O)c(C45CC6CC(CC(C6)C4)C5)c3)ccc2c1",
    "GROUP_LABEL": "III"
  },
  {
    "COMPOUND": "N#Cc1ccc(COC[C@H]2O[C@@H](n3c(NCc4ccc(Cl)c(Cl)c4)nc4c(N)ncnc43)[C@H](O)[C@@H]2O)cc1",
    "GROUP_LABEL": "III"
  },
  {
    "COMPOUND": "CN(C)Cc1c(C(=O)NCCOc2ccc(C(=O)NO)cc2)oc2ccccc12",
    "GROUP_LABEL": "II"
  },
  {
    "COMPOUND": "O=C(O[C@@H]1Cc2c(O)cc(O)cc2O[C@@H]1c1cc(O)c(O)c(O)c1)c1cc(O)c(O)c(O)c1 [(-)-Epigallocatechin gallate]",
    "GROUP_LABEL": "I"
  },
  {
    "COMPOUND": "CC(=O)c1c(C)c2cnc(Nc3ccc(N4CCNCC4)cn3)nc2n(C2CCCC2)c1=O",
    "GROUP_LABEL": "II"
  },
  {
    "COMPOUND": "CN(C)CCCCSC(=N)N",
    "GROUP_LABEL": "II"
  },
  {
    "COMPOUND": "CC[C@H](CO)Nc1nc(NCc2ccccc2)c2ncn(C(C)C)c2n1 [Roscovitine (Seliciclib, CYC202)]",
    "GROUP_LABEL": "II"
  },
  {
    "COMPOUND": "Cc1ccc(NC(=O)c2cccc(C(C)(C)C#N)c2)cc1Nc1ccc2ncn(C)c(=O)c2c1",
    "GROUP_LABEL": "I"
  },
  {
    "COMPOUND": "Nc1nc(Cl)nc2c1ncn2[C@H]1C[C@H](O)[C@@H](CO)O1",
    "GROUP_LABEL": "I"
  },
  {
    "COMPOUND": "O=C(NCCCNc1nc(Nc2cccc(NC(=O)N3CCCC3)c2)ncc1I)c1cccs1",
    "GROUP_LABEL": "III"
  },
  {
    "COMPOUND": "Cc1cnc(NC(=O)Nc2cc(Br)c(C)cc2OC[C@@H]2CNCCO2)cn1",
    "GROUP_LABEL": "II"
  },
  {
    "COMPOUND": "Nc1nc(N)c(N=O)c(OCC2CCCCC2)n1",
    "GROUP_LABEL": "I"
  },
  {
    "COMPOUND": "CCn1c(-c2nonc2N)nc2c(C#CC(C)(C)O)ncc(OC[C@H]3CCCNC3)c21",
    "GROUP_LABEL": "II"
  },
  {
    "COMPOUND": "COc1cc(N2CCC(N3CCN(C)CC3)CC2)ccc1Nc1ncc(Cl)c(Nc2ccccc2S(=O)(=O)C(C)C)n1",
    "GROUP_LABEL": "II"
  },
  {
    "COMPOUND": "COc1cc(Nc2c(C#N)cnc3cc(OCCCN4CCN(C)CC4)c(OC)cc23)c(Cl)cc1Cl [Bosutinib (SKI-606)]",
    "GROUP_LABEL": "II"
  },
  {
    "COMPOUND": "Cc1nc(Nc2ncc(C(=O)Nc3c(C)cccc3Cl)s2)cc(N2CCN(CCO)CC2)n1",
    "GROUP_LABEL": "I"
  },
  {
    "COMPOUND": "Nc1nc(Nc2ccc(S(N)(=O)=O)cc2)nn1C(=O)c1c(F)cccc1F",
    "GROUP_LABEL": "III"
  },
  {
    "COMPOUND": "CS(=O)(=O)N1CCN(Cc2cc3nc(-c4cccc5[nH]ncc45)nc(N4CCOCC4)c3s2)CC1",
    "GROUP_LABEL": "I"
  },
  {
    "COMPOUND": "COc1cc(OC2CCN(C)CC2)ccc1Nc1ncc2c(n1)n(C1CCCC1)c(=O)n2C",
    "GROUP_LABEL": "I"
  },
  {
    "COMPOUND": "Nc1ccc(C(=O)Nc2cccc(-c3nc(N4CCOCC4)c4oc5ncccc5c4n3)c2)cn1",
    "GROUP_LABEL": "III"
  },
  {
    "COMPOUND": "CC(C)(C)c1[nH]cnc1/C=c1\\[nH]c(=O)/c(=C/c2ccccc2)[nH]c1=O",
    "GROUP_LABEL": "III"
  },
  {
    "COMPOUND": "CC(C)C[C@H](NC(=O)CNC(=O)c1cc(Cl)ccc1Cl)B(O)O",
    "GROUP_LABEL": "I"
  },
  {
    "COMPOUND": "O=C(Nc1cccc(Cl)c1)Nc1ncc(CCNc2ncnc3ccsc23)s1",
    "GROUP_LABEL": "II"
  },
  {
    "COMPOUND": "Cc1[nH]c(/C=C2\\C(=O)Nc3ccc(S(=O)(=O)N(C)c4cccc(Cl)c4)cc32)c(C)c1C(=O)N1CCN(C)CC1",
    "GROUP_LABEL": "I"
  },
  {
    "COMPOUND": "Cc1c(CCOc2ccc(C(=O)O)cc2)c2cc(Cl)ccc2n1C(c1ccccc1)c1ccccc1",
    "GROUP_LABEL": "I"
  },
  {
    "COMPOUND": "CNC(=O)[C@@H](NC(=O)[C@H](CC(C)C)[C@H](O)C(=O)NO)C(C)(C)C",
    "GROUP_LABEL": "I"
  },
  {
    "COMPOUND": "C[C@]12CCC(=O)C=C1CC[C@@H]1[C@@H]2[C@@H](O)C[C@@]2(C)[C@H]1CC[C@]2(O)C(=O)CO [Hydrocortisone (Cortisol)]",
    "GROUP_LABEL": "III"
  },
  {
    "COMPOUND": "COc1cc2ncnc(Nc3ccc(Oc4ccccc4)cc3)c2cc1OC",
    "GROUP_LABEL": "III"
  },
  {
    "COMPOUND": "CO[C@H]1C[C@@H]2CC[C@@H](C)[C@@](O)(O2)C(=O)C(=O)N2CCCC[C@H]2C(=O)O[C@H]([C@H](C)C[C@@H]2CC[C@@H](OC(=O)C(C)(CO)CO)[C@H](OC)C2)CC(=O)[C@H](C)/C=C(\\C)[C@@H](O)[C@@H](OC)C(=O)[C@H](C)C[C@H](C)/C=C/C=C/C=C/1C",
    "GROUP_LABEL": "III"
  },
  {
    "COMPOUND": "O=C(Nc1ncc([N+](=O)[O-])s1)c1ccc([N+](=O)[O-])c(Cl)c1",
    "GROUP_LABEL": "III"
  },
  {
    "COMPOUND": "COc1ccc(-c2oc3cc(OC)ccc3c2C(=O)c2ccc(C#N)cc2)cc1",
    "GROUP_LABEL": "III"
  }
]

This collection of values is drawn from the supplement of paper PMC6897291.
